System: SR leukemia
assay-summary: NCI tumour cell line growth inhibition, 48 h
quantity: TGI

| compound | quantity | test-result |
| --- | --- | --- |
| O=c1cc(Nc2cccc(O)c2)[nH]c(=O)[nH]1 | TGI | > 100 µM |
| [B]C(=O)NC(CC(C)C)C(=O)NCC(=O)NC1c2ccsc2C(=O)C1O (stereo unspecified) (tested in a mixture with another compound) | TGI | > 100 µM |
| CN=c1sc2c(n1C)C(=O)c1ccccc1C2=O | TGI | 8.97 µM |
| COc1ccc(-c2[nH]c3ccc(OC)cc3c2C=C(C#N)C#N)cc1 | TGI | 0.116 µM |
| Cn1c2ccccc2c(=O)c2c(O)cc3c(c21)C1OCC(C)(O)C1O3 (stereo unspecified) | TGI | > 100 µM |
| CCOc1cnc(C(O)(c2ccccc2)c2ccccc2)o1 | TGI | > 100 µM |
